Measured Target: Human MrgprX2 (Homo sapiens)
Construct: expressed in transfected cells
Assay Details: Human MrgprX2 antagonist FLIPR intracellular calcium mobilization assay
Format: cell-based
Condition Context: antagonist activity, recombinant hMrgpMRGPRX2 expressing cells, read-out: Human MrgprX2 Antagonist pIC50 (converted)
Quantity Measured: IC50 (nM)
Report the figure in nM without appending any unit label.

# annotated cases, reported IC50 shown
INSERT INTO measurements (compound, observed_value) VALUES
  ('C[C@H](O)CN(C)C(=O)Nc1ncc(Oc2cc(F)cc(C#N)c2)s1 [Compound E187]', 1.26),
  ('CC1(C(=O)Nc2ncc(Cc3cc(F)ccc3F)s2)CCOCC1 [Compound E092]', 100),
  ('C[C@H](O)CN(C)C(=O)Nc1ncc(Oc2ccc(C#N)cc2)s1 [Compound E156]', 39.8),
  ('C[C@]1(C(=O)Nc2ncc(Cc3cccc(Cl)c3)s2)CCOC1 (single isomer, unassigned) [Compound E051]', 100),
  ('CC(C)(CO)C(=O)Nc1ncc(Cc2ccccc2F)s1 [Compound E010]', 1260),
  ('CC(C)C(=O)Nc1ncc(Cc2cc(F)ccc2F)s1 [Compound E093]', 6.31);

Lab note: next compound to report on.
Q: What value of measured IC50 is listed for CN(CC1(O)CC1)C(=O)Nc1ncc(Cc2cccc(F)c2)s1 [Compound E122] ?
A: 6.31

---

Measured Target: Human MrgprX2 (Homo sapiens)
Construct: expressed in transfected cells
Assay Details: Human MrgprX2 antagonist FLIPR intracellular calcium mobilization assay
Assay type: cell-based
Condition Context: antagonist activity, recombinant hMrgpMRGPRX2 expressing cells, read-out: Human MrgprX2 Antagonist pIC50 (converted)
# maps each entry to its IC50
Report the figure in nM without appending any unit label.

# annotated cases, reported IC50 shown
INSERT INTO measurements (compound, quantity_measured, unit_descriptor, observed_value) VALUES
  ('CCN(C[C@@H](C)O)C(=O)Nc1ncc(Oc2cc(F)cc(C#N)c2)s1', 'IC50', 'nM', 2.51),
  ('CC1(C(=O)Nc2ncc(Cc3ccc(F)c(F)c3)s2)CCOCC1', 'IC50', 'nM', 158),
  ('CCN(CC(C)O)C(=O)Nc1ncc(Cc2cccc(F)c2)s1 (stereo not drawn)', 'IC50', 'nM', 0.501),
  ('CC1(C(=O)Nc2ncc(Oc3ccccc3)s2)CCOCC1', 'IC50', 'nM', 126),
  ('CN1CCC[C@H]1C(=O)Nc1ncc(Cc2cccc(F)c2)s1', 'IC50', 'nM', 126),
  ('CC1(C(=O)Nc2ncc(Cc3ccccc3F)s2)COC1', 'IC50', 'nM', 3980);

Q: What value of measured IC50 is listed for CCN(CCO)C(=O)Nc1ncc(Oc2ccc(F)cc2)s1 ?
A: 31.6

Q: What value of measured IC50 is listed for O=C(Nc1ncc(Cc2cccc(F)c2)s1)C1(C(F)(F)F)CC1 ?
A: 100

Q: What value of measured IC50 is listed for CCN(C[C@H](C)O)C(=O)Nc1ncc(Oc2ccc(C#N)c(F)c2)s1 ?
A: 1

---

Measured Target: Human MrgprX2 (Homo sapiens)
Construct: expressed in transfected cells
Sequence (Q96LB1 1-330): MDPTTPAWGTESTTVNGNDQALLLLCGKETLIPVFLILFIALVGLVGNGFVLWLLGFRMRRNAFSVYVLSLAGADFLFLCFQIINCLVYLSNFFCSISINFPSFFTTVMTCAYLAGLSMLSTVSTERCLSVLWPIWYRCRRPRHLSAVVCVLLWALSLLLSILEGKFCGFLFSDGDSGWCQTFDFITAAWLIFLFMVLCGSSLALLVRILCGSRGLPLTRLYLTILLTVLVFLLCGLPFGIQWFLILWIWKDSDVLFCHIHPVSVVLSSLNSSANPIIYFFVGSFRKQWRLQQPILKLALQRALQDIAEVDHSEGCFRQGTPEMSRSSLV
Assay Details: Human MrgprX2 antagonist FLIPR intracellular calcium mobilization assay
Assay type: cell-based
Condition Context: antagonist activity, recombinant hMrgpMRGPRX2 expressing cells, read-out: Human MrgprX2 Antagonist pIC50 (converted)
Quantity Measured: IC50 (µM)
Report the figure in µM without appending any unit label.

# annotated cases, reported IC50 shown
INSERT INTO measurements (chem_smiles, quantity_measured, observed_value) VALUES
  ('CC(C)N(C)C(=O)c1ncc(Cc2cccc(F)c2)s1', 'IC50', 7.94),
  ('N#CC1(C(=O)Nc2ncc(Cc3ccccc3F)s2)CCOCC1', 'IC50', 6.31),
  ('CC(C)C(=O)Nc1cnc(Cc2cccc(F)c2)s1', 'IC50', 7.94),
  ('CC(C)c1nc2ccc(Oc3ccccc3)cc2[nH]1', 'IC50', 3.98);

Lab note: next compound to report on.
Q: What value of measured IC50 is listed for C[C@H](O)CN(C)C(=O)Nc1ncc(Cc2ccccc2F)s1 ?
A: 0.251
